- assayedTarget: Proprotein convertase subtilisin/kexin type 6 (Homo sapiens)
- Sequence (P29122 whole entry): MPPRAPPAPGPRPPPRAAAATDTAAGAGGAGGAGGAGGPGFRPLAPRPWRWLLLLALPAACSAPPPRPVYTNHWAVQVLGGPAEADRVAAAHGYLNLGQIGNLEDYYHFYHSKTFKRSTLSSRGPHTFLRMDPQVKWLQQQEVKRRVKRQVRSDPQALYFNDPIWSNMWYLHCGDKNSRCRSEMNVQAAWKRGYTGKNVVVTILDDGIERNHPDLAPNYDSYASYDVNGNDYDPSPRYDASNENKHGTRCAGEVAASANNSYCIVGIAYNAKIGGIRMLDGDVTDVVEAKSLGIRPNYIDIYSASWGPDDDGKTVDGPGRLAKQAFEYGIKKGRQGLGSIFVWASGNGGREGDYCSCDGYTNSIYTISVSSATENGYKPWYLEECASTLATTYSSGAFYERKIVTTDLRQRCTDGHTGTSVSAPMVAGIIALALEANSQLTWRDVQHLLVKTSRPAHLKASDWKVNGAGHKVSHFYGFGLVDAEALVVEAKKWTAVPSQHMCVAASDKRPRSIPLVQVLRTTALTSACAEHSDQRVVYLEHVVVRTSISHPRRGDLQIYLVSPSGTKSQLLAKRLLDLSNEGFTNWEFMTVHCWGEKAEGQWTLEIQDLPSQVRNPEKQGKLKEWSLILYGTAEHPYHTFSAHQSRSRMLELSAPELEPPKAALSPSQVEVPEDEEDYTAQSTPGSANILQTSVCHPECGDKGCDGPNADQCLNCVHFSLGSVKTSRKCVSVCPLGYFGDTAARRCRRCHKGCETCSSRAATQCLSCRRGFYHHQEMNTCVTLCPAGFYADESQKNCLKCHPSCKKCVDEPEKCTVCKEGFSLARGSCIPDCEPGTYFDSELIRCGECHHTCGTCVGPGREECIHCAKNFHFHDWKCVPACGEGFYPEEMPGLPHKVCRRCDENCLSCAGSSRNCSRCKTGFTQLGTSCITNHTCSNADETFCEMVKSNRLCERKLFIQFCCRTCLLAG
Residues, ends and D or L forms follow the SMILES beside them. *: point of attachment. Agmatine = N=C(N)NCCCCN*; PhAc = O=C(Cc1ccccc1)*
Entries and their pKi
pKi (log units): -log10 of the concentration in mol/L.

Worked cases, answers included:
>  <molecule>
CCCCCCCCCC(=O)N[C@@H](CCCN=C(N)N)C(=O)N[C@H](C(=O)N[C@@H](CCCN=C(N)N)C(=O)NCc1ccc(C(=N)N)cc1)C(C)C

>  <reportedMeasurement>
8.52

$$$$
>  <molecule>
CC(=O)N[C@@H](CCCNC(=N)N)C(=O)N[C@H](C(=O)N[C@@H](CCCNC(=N)N)C(=O)NCc1ccc(C(=N)N)cc1)C(C)C

>  <reportedMeasurement>
8.62

$$$$
>  <molecule>
CC(C)[C@H](NC(=O)[C@H](CCCNC(=N)N)NC(=O)Cc1ccccc1)C(=O)N[C@@H](CCCNC(=N)N)C(=O)NCC1CCN(C(=N)N)CC1

>  <reportedMeasurement>
7.17

$$$$
>  <molecule>
CC(C)[C@H](NC(=O)[C@H](CCCNC(=N)N)NC(=O)Cc1ccccc1)C(=O)N[C@@H](CCCNC(=N)N)C(=O)NCCCCNC(=N)N (PhAc-Arg-Val-Arg-Agmatine)

>  <reportedMeasurement>
7.38

$$$$

Quick one: pKi of `CC(C)[C@H](NC(=O)[C@H](CCCNC(=N)N)NC(=O)Cc1ccccc1)C(=O)N[C@@H](CCCNC(=N)N)C(=O)NCc1ccc(C(=N)N)cc1` ?
9.22
